# Test Summary: Cmax in Sprague-Dawley rat at 3 mg/kg, po
# Assay type: ADME, organism-based
# Set-up: dose 3 mg/kg, route oral
# Condition Info: in vivo
Property Name: Cmax (nM)
Hi! Could you send only the number? It should be in nM, unit omitted.

Query string: Consider the molecule COCCCOc1cc(C(=O)N(C[C@@H]2CNC[C@H]2NC(=O)OCc2ccccc2)C(C)C)ccc1OC and give its measured Cmax.
Result string: 105

====

# Test Summary: Apparent permeability across basolateral to apical side in human Caco2 cells
# Format: ADME, cell-based
# Condition Info: Caco-2
Each record here notes measured Papp B→A.
Give your result in ×10⁻⁶ cm/s as a bare value.

COCCCOc1cc(C(=O)N(C[C@@H]2CNC[C@H]2NC(=O)CCc2ccccc2)C(C)C)ccc1OC (racemic); 2.2
COCCCOc1cc(C(=O)N(C[C@@H]2CNC[C@H]2NS(=O)(=O)Cc2ccccc2)C(C)C)ccc1OC; 5.5
COCCCOc1cc(C(=O)N(C[C@@H]2CNC[C@H]2NC(=O)OCC2CCCCC2)C(C)C)ccc1OC; 5.2
COCCCOc1cc(C(=O)N(C[C@@H]2CNC[C@H]2NCc2ccc3ccccc3c2)C(C)C)ccc1OC; 15.5

Alright, here's another compound for you.
Query string: Item under review: COCCCOc1cc(C(=O)N(C[C@@H]2CNC[C@H]2NC(=O)OCc2ccccc2)C(C)C)ccc1OC . Reported Papp B→A?
Result string: 4.3
